target: Transcription initiation factor TFIID subunit 1 (Homo sapiens, UniProt P21675); test: Binding affinity to TAF1 in human HUT78 cells incubated for 45 mins by mass spectrometry based bromosphere chemoproteomic assay
Sequence (P21675 whole entry): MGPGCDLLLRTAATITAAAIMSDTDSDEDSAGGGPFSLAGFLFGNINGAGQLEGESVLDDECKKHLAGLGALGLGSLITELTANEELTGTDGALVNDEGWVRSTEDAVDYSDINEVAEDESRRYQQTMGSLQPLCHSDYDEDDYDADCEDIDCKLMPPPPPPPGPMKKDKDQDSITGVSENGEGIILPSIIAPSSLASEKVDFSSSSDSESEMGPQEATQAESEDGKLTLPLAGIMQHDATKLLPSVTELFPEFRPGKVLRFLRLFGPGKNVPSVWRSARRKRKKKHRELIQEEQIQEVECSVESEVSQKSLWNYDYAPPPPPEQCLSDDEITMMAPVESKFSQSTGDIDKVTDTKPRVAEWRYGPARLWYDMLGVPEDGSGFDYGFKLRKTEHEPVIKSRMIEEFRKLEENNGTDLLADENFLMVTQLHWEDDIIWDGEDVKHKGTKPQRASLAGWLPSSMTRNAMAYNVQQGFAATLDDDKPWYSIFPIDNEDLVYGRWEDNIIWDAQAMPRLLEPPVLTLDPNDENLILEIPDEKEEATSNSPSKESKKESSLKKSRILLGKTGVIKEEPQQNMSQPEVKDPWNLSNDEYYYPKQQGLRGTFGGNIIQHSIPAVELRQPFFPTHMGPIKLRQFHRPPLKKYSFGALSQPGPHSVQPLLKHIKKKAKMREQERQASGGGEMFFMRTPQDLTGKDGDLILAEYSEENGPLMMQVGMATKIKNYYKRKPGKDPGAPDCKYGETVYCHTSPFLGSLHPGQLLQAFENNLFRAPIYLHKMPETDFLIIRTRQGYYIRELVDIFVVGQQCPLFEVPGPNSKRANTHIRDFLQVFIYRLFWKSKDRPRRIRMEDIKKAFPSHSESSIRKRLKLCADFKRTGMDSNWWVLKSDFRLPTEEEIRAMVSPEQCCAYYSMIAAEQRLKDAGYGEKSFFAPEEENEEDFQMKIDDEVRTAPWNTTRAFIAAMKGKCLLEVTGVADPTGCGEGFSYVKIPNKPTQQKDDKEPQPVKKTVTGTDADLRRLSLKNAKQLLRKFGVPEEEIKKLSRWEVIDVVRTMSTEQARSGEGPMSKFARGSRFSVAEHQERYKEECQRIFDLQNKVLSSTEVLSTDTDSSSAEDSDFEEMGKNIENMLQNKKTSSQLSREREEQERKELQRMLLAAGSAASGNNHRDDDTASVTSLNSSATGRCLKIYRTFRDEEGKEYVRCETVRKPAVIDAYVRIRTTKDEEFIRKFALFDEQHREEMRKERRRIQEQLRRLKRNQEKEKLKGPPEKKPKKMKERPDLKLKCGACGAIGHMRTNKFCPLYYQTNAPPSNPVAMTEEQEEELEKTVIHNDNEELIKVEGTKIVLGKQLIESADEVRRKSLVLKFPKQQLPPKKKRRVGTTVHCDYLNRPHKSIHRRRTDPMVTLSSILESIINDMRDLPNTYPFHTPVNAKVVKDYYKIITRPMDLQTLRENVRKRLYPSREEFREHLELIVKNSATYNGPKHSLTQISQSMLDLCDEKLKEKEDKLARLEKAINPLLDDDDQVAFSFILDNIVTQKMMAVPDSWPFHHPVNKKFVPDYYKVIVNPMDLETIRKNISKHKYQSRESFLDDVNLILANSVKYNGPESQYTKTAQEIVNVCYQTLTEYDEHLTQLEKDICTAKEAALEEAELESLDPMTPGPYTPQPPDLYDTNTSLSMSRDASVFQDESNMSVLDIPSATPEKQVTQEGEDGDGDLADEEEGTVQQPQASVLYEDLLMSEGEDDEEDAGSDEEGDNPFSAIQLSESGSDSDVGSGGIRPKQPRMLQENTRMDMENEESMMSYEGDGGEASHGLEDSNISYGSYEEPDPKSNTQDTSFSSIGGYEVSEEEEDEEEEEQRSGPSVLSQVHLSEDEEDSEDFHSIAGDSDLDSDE
pKd: −log10 of the molar value.
quantity_name: pKd

>>> df
                            molecule_smiles  quantitative_result
0  Cc1cncc(-c2ccc(N[C@@H]3CCNC[C@H]3OCC3CCS(=O)(=O)CC3)c3[nH]c(=O)c(C)cc23)c1                 5.80

a: Cc1cncc(-c2cnc(N[C@@H]3CCN(C)C[C@H]3OCC3CCS(=O)(=O)CC3)c3[nH]c(=O)c(C)cc23)c1
b: Cc1cncc(-c2cnc(N[C@@H]3CCNC[C@H]3OCC3CCCCC3)c3[nH]c(=O)c(C)cc23)c1
Exercise: Between the entries labelled a and b , which has a larger pKd value on record? Pick one; state its label.
Key: a
(a: 5.90, b: 4.50)

* * *

assay: Permeability across phosphatidyl choline membrane at pH 7.4 after 3 hrs by HPLC with UV detection method; format: ADME; conditions: not told, read-out: permeability
Listing of entries alongside the reported Papp at 3 h.

Example compounds with recorded Papp at 3 h:
>>> print(df.to_string())
                            molecule_smiles  quantity_name            result
0  CCc1cc2c(-c3cncc(C)c3)cnc(N[C@@H]3CCNC[C@H]3OCC3CCS(=O)(=O)CC3)c2[nH]c1=O    Papp at 3 h  < 0.3 ×10⁻⁶ cm/s
1  Cc1cc2ccnc(N[C@@H]3CCNC[C@H]3OCC3CCCCC3)c2[nH]c1=O    Papp at 3 h     13 ×10⁻⁶ cm/s
2  Cc1cncc(-c2cnc(N[C@@H]3CCNC[C@H]3OCC3CCS(=O)(=O)CC3)c3[nH]c(=O)c(C)cc23)c1    Papp at 3 h  < 0.3 ×10⁻⁶ cm/s
3  Cc1cncc(-c2cnc(N[C@@H]3CCNC[C@H]3OC[C@H]3C[C@@H](C)S(=O)(=O)[C@@H](C)C3)c3[nH]c(=O)c(C)cc23)c1    Papp at 3 h  < 0.3 ×10⁻⁶ cm/s
4  COc1cncc(-c2cnc(N[C@@H]3CCNC[C@H]3OCC3CCS(=O)(=O)CC3)c3[nH]c(=O)c(C)cc23)c1    Papp at 3 h  < 0.3 ×10⁻⁶ cm/s
5  Cc1cncc(-c2cnc(N[C@@H]3CCN(C)C[C@H]3OCC3CCS(=O)(=O)CC3)c3[nH]c(=O)c(C)cc23)c1    Papp at 3 h    < 1 ×10⁻⁶ cm/s

Kindly consider the entry below.
For reference, reported Papp at 3 h for "Cc1cc2c(-c3cncnc3)cnc(N[C@@H]3CCNC[C@H]3OCC3CCOCC3)c2[nH]c1=O" stands at < 0.3 ×10⁻⁶ cm/s

* * *

assay: physchem; conditions: phosphate buffered saline, pH 7.4, solubility
Description: Solubility of the compound in phosphate buffered saline at pH 7.4 after 1 hr by CLND method
Listing of entries alongside the reported solubility kinetic at 1 h.

                                   compound    result
0  CCc1cc2c(-c3cncc(C)c3)cnc(N[C@@H]3CCNC[C@H]3OCC3CCS(=O)(=O)CC3)c2[nH]c1=O    323 µM
1  Cc1cc2ccnc(N[C@@H]3CCNC[C@H]3OCCC3CCOCC3)c2[nH]c1=O (racemic)  ≥ 327 µM
2  Cc1cc2ccnc(N[C@@H]3CCNC[C@H]3OCC3CCS(=O)(=O)CC3)c2[nH]c1=O (racemic)  ≥ 309 µM
3  Cc1cc2ccnc(N[C@@H]3CCNC[C@H]3OC[C@H]3CC[C@H](O)CC3)c2[nH]c1=O (racemic)  ≥ 323 µM
4  Cc1cc2ccnc(N[C@H]3CCNC[C@@H]3OCC3CCCCC3)c2[nH]c1=O    140 µM
5  Cc1cc2ccnc(N[C@H]3CCNC[C@@H]3OCC3CCOCC3)c2[nH]c1=O  ≥ 352 µM
6  Cc1cc2ccnc(N[C@@H]3CCNC[C@H]3OC[C@@H]3CCS(=O)(=O)C3)c2[nH]c1=O (racemic)  ≥ 328 µM
7  Cc1cc2c(-c3cncc(N)c3)cnc(N[C@@H]3CCNC[C@H]3OCC3CCCCC3)c2[nH]c1=O    494 µM

For reference, reported solubility kinetic at 1 h for Cc1cc2ccnc(N[C@@H]3CCNC[C@H]3OCC3CCOCC3)c2[nH]c1=O (racemic) stands at 298 µM

For reference, reported solubility kinetic at 1 h for "Cc1cncc(-c2cnc(N[C@@H]3CCNC[C@H]3OCC3CCOCC3)c3[nH]c(=O)c(C)cc23)c1" stands at 254 µM

For reference, reported solubility kinetic at 1 h for Cc1cc2ccnc(N[C@@H]3CCNC[C@H]3OCC3CCCC3)c2[nH]c1=O (racemic) stands at ≥ 275 µM

For reference, reported solubility kinetic at 1 h for "COc1cncc(-c2cnc(N[C@@H]3CCNC[C@H]3OCC3CCS(=O)(=O)CC3)c3[nH]c(=O)c(C)cc23)c1" stands at ≥ 269 µM

For reference, reported solubility kinetic at 1 h for "Cc1cncc(-c2cnc(N[C@@H]3CCN(C)C[C@H]3OCC3CCS(=O)(=O)CC3)c3[nH]c(=O)c(C)cc23)c1" stands at ≥ 341 µM

For reference, reported solubility kinetic at 1 h for Cc1cc2ccnc(N[C@@H]3CCNC[C@H]3OCC(C)C)c2[nH]c1=O (racemic) stands at ≥ 290 µM

* * *

biological target: Transcription initiation factor TFIID subunit 1-like (Homo sapiens); assay: Binding affinity to TAF1L (unknown origin) by BROMOscan panel based assay
Sequence (Q8IZX4 whole entry): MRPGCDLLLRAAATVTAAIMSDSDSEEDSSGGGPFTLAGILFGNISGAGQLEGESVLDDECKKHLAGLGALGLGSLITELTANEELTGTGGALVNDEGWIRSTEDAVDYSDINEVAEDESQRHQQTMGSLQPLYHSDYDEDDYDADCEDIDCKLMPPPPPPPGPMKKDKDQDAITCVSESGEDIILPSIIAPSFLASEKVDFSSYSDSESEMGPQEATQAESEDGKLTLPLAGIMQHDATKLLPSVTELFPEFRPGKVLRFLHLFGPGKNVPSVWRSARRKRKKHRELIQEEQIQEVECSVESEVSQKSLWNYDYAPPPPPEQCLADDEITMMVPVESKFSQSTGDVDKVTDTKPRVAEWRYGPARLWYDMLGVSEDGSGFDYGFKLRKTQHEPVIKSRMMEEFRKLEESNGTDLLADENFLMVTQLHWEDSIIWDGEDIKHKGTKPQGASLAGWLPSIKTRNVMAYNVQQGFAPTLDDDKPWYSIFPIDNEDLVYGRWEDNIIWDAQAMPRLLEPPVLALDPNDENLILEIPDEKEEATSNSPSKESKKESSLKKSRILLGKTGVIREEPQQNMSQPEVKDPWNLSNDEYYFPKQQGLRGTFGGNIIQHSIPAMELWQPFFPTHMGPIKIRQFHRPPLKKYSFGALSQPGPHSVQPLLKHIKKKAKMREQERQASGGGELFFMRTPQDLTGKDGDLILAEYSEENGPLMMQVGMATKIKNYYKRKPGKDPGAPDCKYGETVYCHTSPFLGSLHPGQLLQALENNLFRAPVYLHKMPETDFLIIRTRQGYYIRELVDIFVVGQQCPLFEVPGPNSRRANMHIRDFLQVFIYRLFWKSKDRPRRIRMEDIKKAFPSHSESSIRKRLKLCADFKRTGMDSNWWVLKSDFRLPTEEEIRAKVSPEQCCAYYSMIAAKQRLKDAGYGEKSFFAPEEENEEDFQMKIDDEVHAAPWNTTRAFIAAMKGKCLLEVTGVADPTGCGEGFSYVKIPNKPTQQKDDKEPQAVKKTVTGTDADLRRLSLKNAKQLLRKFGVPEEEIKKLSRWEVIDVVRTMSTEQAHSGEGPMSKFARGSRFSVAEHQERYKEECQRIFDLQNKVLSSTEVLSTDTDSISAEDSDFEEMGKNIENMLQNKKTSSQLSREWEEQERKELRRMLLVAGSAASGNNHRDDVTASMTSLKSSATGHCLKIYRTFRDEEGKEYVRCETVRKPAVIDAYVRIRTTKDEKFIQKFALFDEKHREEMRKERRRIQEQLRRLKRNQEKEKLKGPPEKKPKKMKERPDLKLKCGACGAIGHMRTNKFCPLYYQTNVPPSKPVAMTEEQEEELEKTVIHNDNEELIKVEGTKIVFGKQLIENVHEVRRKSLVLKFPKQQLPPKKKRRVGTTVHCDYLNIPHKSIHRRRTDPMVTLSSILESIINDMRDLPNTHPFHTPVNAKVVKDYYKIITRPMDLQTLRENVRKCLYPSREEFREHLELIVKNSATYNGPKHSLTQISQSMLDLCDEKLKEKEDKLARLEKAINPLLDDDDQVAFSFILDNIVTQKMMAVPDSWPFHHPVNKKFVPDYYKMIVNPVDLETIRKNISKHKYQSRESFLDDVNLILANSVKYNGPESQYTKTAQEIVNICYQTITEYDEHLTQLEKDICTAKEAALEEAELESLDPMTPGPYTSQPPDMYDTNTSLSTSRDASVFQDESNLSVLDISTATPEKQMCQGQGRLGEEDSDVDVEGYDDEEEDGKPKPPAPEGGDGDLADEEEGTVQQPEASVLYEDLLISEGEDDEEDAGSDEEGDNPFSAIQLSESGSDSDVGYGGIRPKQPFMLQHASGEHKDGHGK
quantity_name: pKi
Interpret pKi as the negative base-10 log of the concentration measured in mol/L.

Record "Cc1cncc(-c2cnc(N[C@@H]3CCN(C)C[C@H]3OCC3CCS(=O)(=O)CC3)c3[nH]c(=O)c(C)cc23)c1" ; system Transcription initiation factor TFIID subunit 1-like (Homo sapiens); pKi = 6.90

* * *

test: Permeability across phosphatidyl choline membrane at pH 7.4 after 3 hrs by HPLC with UV detection method; format: ADME; settings: not told, read-out: permeability
quantity_name: Papp at 3 h

In [3]: df
Out[3]:
                                   compound            result
0  Cc1cncc(-c2cnc(N[C@@H]3CCNC[C@H]3OCC3CCCCC3)c3[nH]c(=O)c(C)cc23)c1   13.8 ×10⁻⁶ cm/s
1  Cc1cncc(-c2cnc(N[C@@H]3CCNC[C@H]3OCC3CCOCC3)c3[nH]c(=O)c(C)cc23)c1   3.25 ×10⁻⁶ cm/s
2  Cc1cncc(-c2ccc(N[C@@H]3CCNC[C@H]3OCC3CCS(=O)(=O)CC3)c3[nH]c(=O)c(C)cc23)c1 (racemic)  < 0.3 ×10⁻⁶ cm/s

For reference, reported Papp at 3 h for "COc1cncc(-c2cnc(N[C@@H]3CCNC[C@H]3OCC3CCOCC3)c3[nH]c(=O)c(C)cc23)c1" stands at 3.35 ×10⁻⁶ cm/s

* * *

Listing of entries alongside the reported Kd.
biological target: Nucleosome-remodeling factor subunit BPTF (Homo sapiens, UniProt Q12830); assay: Binding affinity to BPTF in human HUT78 cells incubated for 45 mins by mass spectrometry based bromosphere chemoproteomic assay

Example compounds with recorded Kd:
In [3]: df
Out[3]:
                            molecule_smiles    result
0  Cc1cncc(-c2cnc(N[C@@H]3CCN(C)C[C@H]3OCC3CCS(=O)(=O)CC3)c3[nH]c(=O)c(C)cc23)c1  > 100 µM
1  Cc1cncc(-c2cnc(N[C@@H]3CCNC[C@H]3OCC3CCCCC3)c3[nH]c(=O)c(C)cc23)c1  > 100 µM

Kindly consider the entry below.
For reference, reported Kd for "Cc1cncc(-c2ccc(N[C@@H]3CCNC[C@H]3OCC3CCS(=O)(=O)CC3)c3[nH]c(=O)c(C)cc23)c1" stands at > 100 µM

* * *

Listing of entries alongside the reported solubility kinetic at 1 h.
test: physchem; conditions: phosphate buffered saline, pH 7.4, solubility

>>> df
                                   compound              quantity_name    result
0  Cc1cc2c(-c3cccnc3)cnc(N[C@@H]3CCNC[C@H]3OCC3CCOCC3)c2[nH]c1=O  solubility kinetic at 1 h  ≥ 465 µM

For reference, reported solubility kinetic at 1 h for "Cc1cc2ccnc(N[C@H]3CCNC[C@@H]3OCC3CCS(=O)(=O)CC3)c2[nH]c1=O" stands at ≥ 531 µM

For reference, reported solubility kinetic at 1 h for CCCO[C@@H]1CNCC[C@H]1Nc1nccc2cc(C)c(=O)[nH]c12 (racemic) stands at ≥ 280 µM

* * *

target: Bromodomain-containing protein 4 (Homo sapiens, UniProt O60885, Y390A)
quantity_name: IC50 (µM)

Example compounds with recorded IC50:
In [3]: df
Out[3]:
                                   compound  quantitative_result
0  CCCO[C@@H]1CNCC[C@H]1Nc1nccc2cc(C)c(=O)[nH]c12 (racemic)                 6.31
1  Cc1cc2ccnc(N[C@@H]3CCNC[C@H]3OCC3CCCCC3)c2[nH]c1=O (racemic)                 5.01
2  Cc1cc2c(-c3cccnc3)cnc(N[C@@H]3CCNC[C@H]3OCC3CCOCC3)c2[nH]c1=O                 6.31
3  Cc1cncc(-c2cnc(N[C@@H]3CCNC[C@H]3OCC3CCOCC3)c3[nH]c(=O)c(C)cc23)c1                   10
4  Cc1cc2ccnc(N[C@@H]3CCNC[C@H]3OCCC3CCOCC3)c2[nH]c1=O (racemic)                 25.1
5  CCc1cc2c(-c3cncc(C)c3)cnc(N[C@@H]3CCNC[C@H]3OCC3CCS(=O)(=O)CC3)c2[nH]c1=O                   10

P: Cc1cc2ccnc(N[C@@H]3CCNC[C@H]3OC(C)C)c2[nH]c1=O (racemic)
Q: Cc1cc2ccnc(N[C@@H]3CCNC[C@H]3OCC3CCCCC3)c2[nH]c1=O
R: COc1cncc(-c2cnc(N[C@@H]3CCNC[C@H]3OCC3CCOCC3)c3[nH]c(=O)c(C)cc23)c1
S: Cc1cc2ccnc(N[C@H]3CCNC[C@@H]3OCC3CCOCC3)c2[nH]c1=O
Exercise: Put the items in sequence by IC50, from largest down. List labels; respect the requested ordering.
Key: P, S, R, Q

P: COc1cncc(-c2cnc(N[C@@H]3CCNC[C@H]3OCC3CCS(=O)(=O)CC3)c3[nH]c(=O)c(C)cc23)c1
Q: Cc1cncc(-c2cnc(N[C@@H]3CCNC[C@H]3OC[C@H]3C[C@@H](C)S(=O)(=O)[C@@H](C)C3)c3[nH]c(=O)c(C)cc23)c1
Exercise: Pick one, P or Q : lowest reported IC50. Pick one; state its label.
Key: P
(P: 7.94 µM, Q: 25.1 µM)
